- TARGET_OR_SYSTEM: 5-HT2A receptor (Homo sapiens (Human))
- EXPERIMENTAL_PROTOCOL: HTRF IP-One antagonist assay, 5-HT2A
- CONDITION_SET: HEK293 cells stably expressing recombinant human receptor; IP accumulation with 80 nM 5-HT

- MOLECULE: "Cc1noc(C)c1-c1cc(NC(=O)c2c(F)cnn2C)ccc1OC[C@H]1CCCCN1 [Compound 230]"
  IC50 (nM): 6.17
- MOLECULE: "Cc1noc(C)c1-c1cc(NC(=O)C2CC2)ccc1OC[C@H]1CCCCN1 [Compound 169]"
  IC50 (nM): 13
- MOLECULE: "Cc1noc(C)c1-c1cc(NC(=O)C2CC2)ccc1OCCN1CCC(O)CC1 [Compound 146]"
  IC50 (nM): 15.7
- MOLECULE: "Cc1noc(C)c1-c1cc(NC(=O)c2ccc(F)cc2)ccc1OC[C@H]1CCCCN1 [Compound 219]"
  IC50 (nM): 10.4
- MOLECULE: "Cc1noc(C)c1-c1cc(NC(=O)Cc2ccns2)ccc1OC[C@H]1CCCCN1 [Compound 233]"
  IC50 (nM): 9.5

###

This section presents compounds with their documented pKi values.
- TARGET_OR_SYSTEM: 5-HT2A receptor (Homo sapiens (Human), UniProt P28223)
- Sequence (P28223 whole entry): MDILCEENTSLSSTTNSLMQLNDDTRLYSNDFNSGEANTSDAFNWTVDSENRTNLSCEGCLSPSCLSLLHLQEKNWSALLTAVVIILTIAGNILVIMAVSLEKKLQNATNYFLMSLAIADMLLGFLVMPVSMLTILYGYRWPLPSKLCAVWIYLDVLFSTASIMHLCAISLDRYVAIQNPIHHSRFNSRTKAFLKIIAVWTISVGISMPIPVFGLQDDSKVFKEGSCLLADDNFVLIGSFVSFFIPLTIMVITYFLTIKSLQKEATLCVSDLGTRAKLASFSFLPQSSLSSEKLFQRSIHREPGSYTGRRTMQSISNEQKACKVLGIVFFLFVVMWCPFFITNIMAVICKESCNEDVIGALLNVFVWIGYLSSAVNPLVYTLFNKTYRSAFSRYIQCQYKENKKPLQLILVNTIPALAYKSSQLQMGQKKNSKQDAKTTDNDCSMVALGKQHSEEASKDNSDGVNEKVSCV
- EXPERIMENTAL_PROTOCOL: Radioligand binding assay ([3H]5-HT competition), 5-HT2A
- CONDITION_SET: [3H]5-HT radioligand, membranes of HEK293 cells expressing recombinant 5-HT2A; Ki from IC50 by Cheng-Prusoff; read-out: 5-HT2A serotonin binding Ki value
pKi: −log10 of the molar value.

- TEST_SMILES: "Cc1noc(C)c1-c1cc(NC(=O)c2cnoc2C)ccc1OC[C@H]1CCCCN1"
  TARGET_OR_SYSTEM: "5-HT2A receptor (Homo sapiens (Human), UniProt P28223)"
  pKi: 7.98
- TEST_SMILES: "CC(=O)N1CCN(CCOc2ccc(NC(=O)C3CC3)cc2-c2c(C)noc2C)CC1"
  TARGET_OR_SYSTEM: "5-HT2A receptor (Homo sapiens (Human), UniProt P28223)"
  pKi: 7.91
- TEST_SMILES: "Cc1noc(C)c1-c1cc(NC(=O)C2CC2)ccc1O[C@H]1CCNC1"
  TARGET_OR_SYSTEM: "5-HT2A receptor (Homo sapiens (Human), UniProt P28223)"
  pKi: 6.73
- TEST_SMILES: "Cc1noc(C)c1-c1cc(NC(=O)C2CC2)ccc1OCCN1CCOCC1"
  TARGET_OR_SYSTEM: "5-HT2A receptor (Homo sapiens (Human), UniProt P28223)"
  pKi: 8.18
- TEST_SMILES: "Cc1noc(C)c1-c1cc(NC(=O)C2CC2)ccc1O[C@@H]1CCNC1"
  TARGET_OR_SYSTEM: "5-HT2A receptor (Homo sapiens (Human), UniProt P28223)"
  pKi: 8.00
- TEST_SMILES: "Cc1cnoc1C(=O)Nc1ccc(OCCN2CCCC2)c(-c2c(C)noc2C)c1"
  TARGET_OR_SYSTEM: "5-HT2A receptor (Homo sapiens (Human), UniProt P28223)"
  pKi: 7.62
- TEST_SMILES: "Cc1nscc1C(=O)Nc1ccc(OC[C@H]2CCCCN2)c(-c2c(C)noc2C)c1"
  TARGET_OR_SYSTEM: "5-HT2A receptor (Homo sapiens (Human), UniProt P28223)"
  pKi: 8.40
- TEST_SMILES: "Cc1noc(C)c1-c1cc(NC(=O)C2CC2)ccc1OCCN1CCCC1"
  TARGET_OR_SYSTEM: "5-HT2A receptor (Homo sapiens (Human), UniProt P28223)"
  pKi: 8.11
- TEST_SMILES: "CCN1CC(Oc2ccc(NC(=O)C3CC3)cc2-c2c(C)noc2C)C1"
  TARGET_OR_SYSTEM: "5-HT2A receptor (Homo sapiens (Human), UniProt P28223)"
  pKi: 7.29
